assay: Half life in ICR mouse at 10 mg/kg, iv measured after 1440 mins by HPLC analysis; format: ADME, organism-based; conditions: in vivo
Outcome Measure: half-life (h)
Numbers only, in h.

Give reported half-life value for CS(=O)(=O)c1nc(Nc2ccc(F)c(Cl)c2)cc(N2CCNCC2)n1.Cl
3.3

----------
experiment: Metabolic stability in rat liver microsomes assessed as compound remaining at […] incubated for 30 mins by LC/MS/MS analysis; format: ADME, Microsome; conditions: read-out: Stabilty
Outcome Measure: remaining at 0.5 h (%)
One number for each entry, in %.

Below, 5 compounds whose answers are already recorded.
>>> value("CS(=O)(=O)c1nc(Nc2ccc(F)c(Cl)c2)cc(NC2CCNCC2)n1")
85.1
>>> value("O=C1CC2(CCCC2)CC(=O)N1CCCCN1CCN(c2ncccn2)CC1 [BUSPIRONE]")
0.528
>>> value("CS(=O)(=O)c1nc(Nc2cc(F)c(F)c(F)c2)cc(Nc2cc(F)c(F)c(F)c2)n1")
99.9
>>> value("CS(=O)(=O)c1nc(Nc2ccc(F)c(Cl)c2)cc(Nc2ccc(F)c(Cl)c2)n1")
99.9
>>> value("CS(=O)(=O)c1nc(Nc2ccc(F)cc2)cc(Nc2ccc(F)cc2)n1")
74.4

# batch size: 5; output remaining at 0.5 h per entry
1. CS(=O)(=O)c1nc(Nc2cc(F)c(F)c(F)c2)cc(NC2CCNCC2)n1
2. CS(=O)(=O)c1nc(Nc2ccc(F)c(Cl)c2)cc(NC2CCC(N)CC2)n1 (stereo unspecified)
3. COc1ncccc1C(=O)NCCNc1cc(Nc2ccc(N3CCOCC3)cc2)nc([S+](C)[O-])n1 (stereo unspecified)
4. COc1ncccc1C(=O)NCCNc1cc(Nc2ccc(N3CCOCC3)cc2)nc(SC)n1
5. CS(=O)(=O)c1nc(Nc2cc(F)c(F)c(F)c2)cc(N2CCNCC2)n1

1. 98.2
2. 82
3. 77.1
4. 49
5. 87.9

----------
test: AUClast in ICR mouse at 5 mg/kg, iv measured after 1440 mins by HPLC analysis; type: ADME, organism-based; parameters: route intravenous, dose 5 mg/kg, time 1440 min; settings: in vivo
Outcome Measure: AUC(0-t) at 24 h (ng·h/mL)
Answers are plain numbers, in ng·h/mL.

Indicate its recorded AUC(0-t) at 24 h; the compound in question is CS(=O)(=O)c1nc(Nc2ccc(F)c(Cl)c2)cc(NC2CCC(N)CC2)n1.Cl (stereo unspecified)
2110

----------
system: Hepatitis B virus; experiment: Antiviral activity against Human hepatitis B virus in Huh-7 cells assessed as reduction in intracellular viral DNA level incubated for 36 hrs by qPCR analysis; type: functional, organism-based; conditions: Huh-7, 36 h
Outcome Measure: pIC50
Numbers only, as −log10 of the molar value.

Guide cases for pIC50, answers given:
>>> value("COc1ncccc1C(=O)NCCNc1cc(Nc2ccccc2)nc([S+](C)[O-])n1 (centres undefined)")
6.32
>>> value("CS(=O)(=O)c1nc(Nc2cc(F)c(F)c(F)c2)cc(Nc2cc(F)c(F)c(F)c2)n1")
5.99

State the recorded pIC50 for every item in the following list.
1. COc1ncccc1C(=O)NCCNc1cc(Nc2ccc(N3CCOCC3)cc2)nc([S+](C)[O-])n1 (centres undefined)
2. CS(=O)(=O)c1nc(Nc2ccc(F)c(Cl)c2)cc(Nc2ccc(F)c(Cl)c2)n1
3. CS(=O)(=O)c1nc(Nc2cc(F)c(F)c(F)c2)cc(N2CCNCC2)n1
4. CS(=O)(=O)c1nc(Nc2cc(F)c(F)c(F)c2)cc(NC2CCNCC2)n1

6.40
6.23
6.69
6.72

Please supply pIC50 for each of the following items, keeping them in order.
1. COc1cncc(C(=O)NCCNc2cc(Nc3ccc(N4CCOCC4)cc3)nc(SC)n2)c1
2. CS(=O)(=O)c1nc(Nc2ccc(F)c(Cl)c2)cc(N2CCNCC2)n1

[5.07, 6.72]

----------
assay: Clearance in ICR mouse at 5 mg/kg, iv measured after 1440 mins by HPLC analysis; assay type: ADME, organism-based; details: in vivo
Outcome Measure: clearance (mL/min/kg)
Answers are plain numbers, in mL/min/kg.

Read the entry CS(=O)(=O)c1nc(Nc2ccc(F)c(Cl)c2)cc(NC2CCC(N)CC2)n1.Cl (stereo unspecified) and write its reported clearance.
36.7

----------
test system: Hepatitis B virus; experiment: Antiviral activity against Human hepatitis B virus in Huh-7 cells assessed as reduction in intracellular viral DNA level incubated for 36 hrs by qPCR analysis; assay type: functional, organism-based; details: Huh-7, 36 h
Outcome Measure: IC50

Known IC50 results, listed for orientation:
>>> value("COc1cncc(C(=O)NCCNc2cc(Nc3ccc(N4CCOCC4)cc3)nc([S+](C)[O-])n2)c1 (centres undefined)")
"> 10000 nM"
>>> value("CS(=O)(=O)c1nc(Nc2ccc(F)c(Cl)c2)cc(NC2CCC(N)CC2)n1 (centres undefined)")
"181 nM"

Dear colleague, could you please provide IC50 for the molecules listed below?
1. COc1ncccc1C(=O)NCCNc1cc(Nc2ccc(Cl)cc2)nc([S+](C)[O-])n1 (centres undefined)
2. CCOC(=O)C1=C(CN2CCOCC2)NC(c2nccs2)=N[C@H]1c1ccc(F)cc1Br
3. COc1ncccc1C(=O)NCCNc1cc(Nc2ccc(Br)cc2)nc([S+](C)[O-])n1 (centres undefined)
4. CSc1nc(NCCNC(=O)c2cccnc2)cc(Nc2ccc(N3CCOCC3)cc2)n1
5. CS(=O)(=O)c1nc(Nc2ccc(F)c(Br)c2)cc(NC2CCC(N)CC2)n1 (centres undefined)
6. COc1ncccc1C(=O)N1CCN(c2cc(Nc3ccc(N4CCOCC4)cc3)nc([S+](C)[O-])n2)CC1 (centres undefined)

["299 nM", "188 nM", "177 nM", "> 10000 nM", "480 nM", "> 10000 nM"]

Note down IC50 recorded for C[S+]([O-])c1nc(NCCNC(=O)c2cccnc2)cc(Nc2ccc(N3CCOCC3)cc2)n1 (centres undefined)
> 10000 nM

----------
assay: AUClast in ICR mouse at 10 mg/kg, po measured after 1440 mins by HPLC analysis; type: ADME, organism-based; design: route oral, time 1440 min, dose 10 mg/kg; settings: in vivo
For each entry below, report its AUC(0-t) at 24 h value.
Give bare numbers, in ng·h/mL.

>>> value("CS(=O)(=O)c1nc(Nc2ccc(F)c(Cl)c2)cc(N2CCNCC2)n1.Cl")
131

Please list AUC(0-t) at 24 h recorded for the molecule CS(=O)(=O)c1nc(Nc2ccc(F)c(Cl)c2)cc(NC2CCC(N)CC2)n1.Cl (configuration not stated)
203

----------
experiment: AUC(infinity) in ICR mouse at 10 mg/kg, po measured after 1440 mins by HPLC analysis; type: ADME, organism-based; design: route oral, dose 10 mg/kg, time 1440 min; conditions: in vivo
Would you kindly list AUC(0-inf) for each of these compounds?
One number for each entry, in ng·h/mL.

>>> value("CS(=O)(=O)c1nc(Nc2ccc(F)c(Cl)c2)cc(N2CCNCC2)n1.Cl")
107

Now look at this entry.
Indicate its recorded AUC(0-inf); the compound in question is CS(=O)(=O)c1nc(Nc2ccc(F)c(Cl)c2)cc(NC2CCC(N)CC2)n1.Cl (configuration not stated)
270

----------
Can you tell me inhibition at 10 µM for the items I'm about to list?
biological target: CYP1A2 (Homo sapiens); experiment: Inhibition of human recombinant CYP1A2 using alpha-naphthoflavone […] at 10 uM by fluorometric assay; format: ADME
Sequence (P05177 whole entry): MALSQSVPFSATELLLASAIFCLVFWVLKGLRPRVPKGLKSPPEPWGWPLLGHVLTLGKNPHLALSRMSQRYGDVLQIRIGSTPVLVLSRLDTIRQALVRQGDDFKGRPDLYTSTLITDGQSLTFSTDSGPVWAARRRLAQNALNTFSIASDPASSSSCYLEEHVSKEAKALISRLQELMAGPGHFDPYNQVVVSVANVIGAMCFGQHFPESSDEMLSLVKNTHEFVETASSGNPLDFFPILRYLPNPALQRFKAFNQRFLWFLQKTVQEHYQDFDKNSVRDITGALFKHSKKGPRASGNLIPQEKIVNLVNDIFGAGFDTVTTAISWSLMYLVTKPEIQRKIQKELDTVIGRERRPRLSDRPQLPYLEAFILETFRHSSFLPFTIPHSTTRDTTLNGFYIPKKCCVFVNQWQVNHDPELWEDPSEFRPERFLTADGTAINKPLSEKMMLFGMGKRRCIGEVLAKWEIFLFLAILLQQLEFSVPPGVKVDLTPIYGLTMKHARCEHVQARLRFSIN
Answers are plain numbers, in %.

Reference set, count: 3
>>> value("CS(=O)(=O)c1nc(Nc2cc(F)c(F)c(F)c2)cc(N2CCNCC2)n1")
23.6
>>> value("COc1ncccc1C(=O)NCCNc1cc(Nc2ccc(N3CCOCC3)cc2)nc([S+](C)[O-])n1 (centres undefined)")
18.3
>>> value("CS(=O)(=O)c1nc(Nc2ccc(F)c(Cl)c2)cc(NC2CCC(N)CC2)n1 (centres undefined)")
37.2

Next:
State its inhibition at 10 µM: CS(=O)(=O)c1nc(Nc2ccc(F)c(Cl)c2)cc(N2CCNCC2)n1
57.4

----------
assay: Metabolic stability in mouse liver microsomes assessed as compound remaining at […] incubated for 30 mins by LC/MS/MS analysis; format: ADME, Microsome; details: read-out: Stabilty
Task for the reader: assign each of the following molecules its reported remaining at 0.5 h.

>>> value("CS(=O)(=O)c1nc(Nc2ccc(F)c(Cl)c2)cc(NC2CCC(N)CC2)n1 (stereo unspecified)")
"79.6%"
>>> value("COc1ncccc1C(=O)NCCNc1cc(Nc2ccc(N3CCOCC3)cc2)nc(SC)n1")
"17.8%"
>>> value("COc1ncccc1C(=O)NCCNc1cc(Nc2ccc(N3CCOCC3)cc2)nc([S+](C)[O-])n1 (stereo unspecified)")
"80.2%"
>>> value("CS(=O)(=O)c1nc(Nc2cc(F)c(F)c(F)c2)cc(N2CCNCC2)n1")
"99.8%"
>>> value("CS(=O)(=O)c1nc(Nc2ccc(F)cc2)cc(Nc2ccc(F)cc2)n1")
"37.7%"

# batch: return remaining at 0.5 h for each of the 4 molecules below
1. CS(=O)(=O)c1nc(Nc2ccc(F)c(Cl)c2)cc(NC2CCNCC2)n1
2. CS(=O)(=O)c1nc(Nc2ccc(F)c(Cl)c2)cc(N2CCNCC2)n1
3. CS(=O)(=O)c1nc(Nc2cc(F)c(F)c(F)c2)cc(Nc2cc(F)c(F)c(F)c2)n1
4. CS(=O)(=O)c1nc(Nc2ccc(F)c(Cl)c2)cc(Nc2ccc(F)c(Cl)c2)n1

93.9%
> 99%
99.9%
92.9%

Please look at the items below and tell me remaining at 0.5 h for each one, in order.
1. CS(=O)(=O)c1nc(Nc2cc(F)c(F)c(F)c2)cc(NC2CCNCC2)n1
2. O=C1CC2(CCCC2)CC(=O)N1CCCCN1CCN(c2ncccn2)CC1

["98.6%", "0.906%"]
